target: MC1-R (B-16 mouse melanoma cells) (Mus musculus); construct: B-16 mouse melanoma cells (containing MC1-R); endogenous in cells; host or cells: B-16 mouse melanoma cells; assay: cAMP functional assay for agonist/antagonist status, MC1-R; format: cell-based; conditions: cAMP response ratio to NDP-α-MSH
Sequence (Q01727 whole entry): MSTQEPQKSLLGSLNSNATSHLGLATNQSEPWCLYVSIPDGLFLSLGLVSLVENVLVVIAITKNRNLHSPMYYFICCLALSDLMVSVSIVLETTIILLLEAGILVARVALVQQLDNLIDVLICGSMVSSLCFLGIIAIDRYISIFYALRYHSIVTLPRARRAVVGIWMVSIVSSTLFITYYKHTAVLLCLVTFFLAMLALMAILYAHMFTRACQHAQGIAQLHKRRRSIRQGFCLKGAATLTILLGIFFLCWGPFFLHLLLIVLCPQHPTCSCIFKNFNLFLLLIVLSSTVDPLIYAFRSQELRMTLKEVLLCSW
Where a SMILES comes first, the peptide text is derived from it. Bridges are numbered along the chain shown (N, C = ends). [ ]: non-standard residue; d: D form. 1Nal = N[C@@H](Cc1cccc2ccccc12)C(=O)O
Measurement Type: efficacy relative to NDP-α-MSH, MC1-R

CCCC[C@H](NC(C)=O)C(=O)N[C@H]1CC(=O)NCCCC[C@@H](C(=O)N(C)C)NC(=O)[C@H](Cc2cccc3ccccc23)NC(=O)[C@H](CCCNC(=N)N)NC(=O)[C@@H](Cc2ccccc2)NC(=O)[C@H](Cc2c[nH]cn2)NC1=O : 0.8
CC(=O)N[C@H]1CC(=O)NCCCC[C@@H](C(=O)N(C)C)NC(=O)[C@H](Cc2cccc3ccccc23)NC(=O)[C@H](CCCNC(=N)N)NC(=O)[C@@H](Cc2ccccc2)NC(=O)[C@H](Cc2c[nH]cn2)NC1=O [Example 17] (Ac-DH[dF]R[1Nal]K-NMe2; lactam 1-6 (inferred)) : 1.0
CCNC(=O)[C@@H]1CCCCNC(=O)C[C@H](NC(C)=O)C(=O)N[C@@H](Cc2c[nH]cn2)C(=O)N[C@H](Cc2ccccc2)C(=O)N[C@@H](CCCNC(=N)N)C(=O)N[C@@H](Cc2cccc3ccccc23)C(=O)N1 [Example 16] (Ac-DH[dF]R[1Nal]K-NHEt; lactam 1-6 (inferred)) : 0.9
CCCC[C@H](NC(C)=O)C(=O)N[C@H]1CC(=O)NCCCC[C@@H](C(=O)NCC)NC(=O)[C@H](Cc2cccc3ccccc23)NC(=O)[C@H](CCCNC(=N)N)NC(=O)[C@@H](Cc2ccccc2)NC(=O)[C@H](Cc2c[nH]cn2)NC1=O : 0.6
